Every entry's value here was drawn from the supplement of paper PMC11451515.

Reported cell viability values for the following compounds.
Tested on: NOMO1
assay-method-text: cell viability relative to DMSO control; higher = less cytotoxic
condition-label: HPLM + 10% dialyzed FBS; 48 h; 5.12 µM
property-label: cell viability (%)

compound	study-target	property-label	result-number
COC1=CC(=CC=C1)C2=CC=C(NC(=O)/C3=C(/CCC3)C(O)=O)C(=C2)F	NOMO1	cell viability	103
O=C(c1ccc(/C=C/c2n[nH]c3ccccc23)cc1)N1CCNCC1	NOMO1	cell viability	70.9
O=C(O)c1ccc(-c2c[nH]c3ncc(-c4ccccc4)cc23)cc1C1CCCC1	NOMO1	cell viability	126
CC(C[N+](C)(C)C)OC(N)=O (stereo not given)	NOMO1	cell viability	119
CN1CC/C(CC1)=C3\c4ccccc4CC(=O)c2sccc23	NOMO1	cell viability	110
CCc1cccc2c3c([nH]c12)C(CC)(CC(=O)O)OCC3 (stereo not given)	NOMO1	cell viability	97.4
CCNC(=O)Nc1ccc(-c2nc3c(c(N4CCOC[C@@H]4C)n2)CCN(C2COC2)C3)cc1	NOMO1	cell viability	57.6
CN(C)/[N+]([O-])=N/Oc1cc(ON[N+](=O)N2CCN(C(=O)c3cc(Cc4n[nH]c(=O)c5ccccc45)ccc3F)CC2)c([N+](=O)[O-])cc1[N+](=O)[O-]	NOMO1	cell viability	102
CN(C)CC[C@H](CSc1ccccc1)Nc1ccc([S+](=O)([O-])NC(=O)c2ccc(N3CCN(Cc4ccccc4-c4ccc(Cl)cc4)CC3)cc2)cc1[N+](=O)[O-]	NOMO1	cell viability	52.7
COC/1=C/[C@@H]2[C@@H]3CC4=C(C(=C(OC)C=C4)O)[C@]2(CCN3C)CC1=O	NOMO1	cell viability	135
CO[C@H]1/C=C/O[C@@]2(C)Oc3c(C)c(O)c4c(O)c(c(/C=N\N5CCN(C6CCCC6)CC5)c(O)c4c3C2=O)NC(=O)/C(C)=C\C=C\[C@H](C)[C@H](O)[C@@H](C)[C@@H](O)[C@@H](C)[C@H](OC(C)=O)[C@@H]1C	NOMO1	cell viability	28.9
C/C(=C\c1csc(C)n1)[C@@H]1C[C@@H]2O[C@]2(C)CCC[C@H](C)[C@H](O)[C@@H](C)C(=O)C(C)(C)[C@@H](O)CC(=O)O1	NOMO1	cell viability	25.2
C[C@]12CC[C@@H]3c4ccc(O)cc4CC[C@H]3[C@@H]1CC[C@@H]2O	NOMO1	cell viability	112
COC(=O)Nc1ccc(-c2nc(N3CCOCC3)c3cnn(C4CCN(Cc5cccnc5)CC4)c3n2)cc1	NOMO1	cell viability	26.3
CCc1ccc(C(=O)Nc2cc(CN3CCN(C)CC3)cc(C(F)(F)F)c2)cc1C#Cc1cnc2ccnn2c1	NOMO1	cell viability	104

###

Tested on: SEM cells
assay-method-text: AUC of viability dose-response curve (% viability x log10 dose units); higher = less sensitive
condition-label: RPMI 5 mM glucose + 10% FBS; 48 h
In plain terms, low AUC of viability dose-response curve, meaning strictly below 400, gives y, and everything else gives n.

molecule	category-label
OC1=CC2=C(C(=O)\C=C(/O2)C3=CC=CC=C3)C(=C1O)O	y
CC(C)(C)Cn1c(N)nc2ccc(-c3[nH]c(C(C)(C)C)nc3-c3ccc(F)cc3)nc21	y
CC(Cc1ccc(O)c(O)c1)(NN)C(=O)O (stereo not drawn)	n
COc1nccc(-c2c(-c3ccc(F)cc3)ncn2C2CCC(O)CC2)n1 (stereo not drawn)	y
C[C@H]1[C@H](O)O[C@@H]2O[C@@]3(C)CC[C@H]4[C@H](C)CC[C@@H]1[C@@]24OO3	y
NC/1=N/C(=O)N(C[C@@H](CO)OC[P](O)(O)=O)/C=C1	n
C=C[C@H]1CN2CCC1C[C@@H]2[C@@H](O)c1ccnc2ccccc12 (stereo partly drawn)	n
N#CC1(c2ccc(NC(=O)c3cccnc3NCc3ccncc3)cc2)CCCC1	n
NC1CCC(Nc2nc(Nc3ccc(C(=O)N4CCCCC4)cc3)c3ncn(-c4cccc(F)c4)c3n2)CC1 (stereo not drawn)	n
CC1=CC=C(C=C1)N(C\C2=N\CCN2)C3=CC=CC(=C3)O	n

###

Tested on: NOMO1
assay-method-text: cell viability relative to DMSO control; higher = less cytotoxic
condition-label: HPLM + 10% dialyzed FBS; 48 h; 0.19 µM
Reported cell viability values for the following compounds.
property-label: cell viability (%)

compound	study-target	result-number
O=C1CCC[C@@H]2[C@H]3CCC[N+]4([O-])CCC[C@@H](CN12)[C@@H]34 (some centres undefined)	NOMO1	98.2
FC(F)(F)C1=CC=C2C(SCCCCCO\C3=C\O\C(CN4CCOCC4)=C/C3=O)=CC=NC2=C1	NOMO1	139
CN(C)/[N+]([O-])=N/Oc1cc(ON[N+](=O)N2CCN(C(=O)c3cc(Cc4n[nH]c(=O)c5ccccc45)ccc3F)CC2)c([N+](=O)[O-])cc1[N+](=O)[O-]	NOMO1	119
CN1/C=C(\N=C(NC2=CC=C(C=C2)C(=O)N3CCOCC3)/C1=O)/C4=C(C)C(=CC=C4)NC(=O)C5=CC=C(C=C5)C(C)(C)C	NOMO1	111
CCCCOc1ccc(CC(=O)NO)cc1	NOMO1	104
C[N]1N=CC2=C1C=C(C(=C2)OC3=CC=C(NC(=O)\C4=C\C=C(\C)N(C4=O)C5=CC=C(F)C=C5)C=C3F)C6=C[NH]N=C6	NOMO1	141
COc1nccc(-c2c(-c3ccc(F)cc3)ncn2C2CCC(O)CC2)n1 (centres undefined)	NOMO1	121
NC(=O)c1ccc(-c2nc(-c3ccc4c(c3)OCO4)c(-c3ccccn3)[nH]2)cc1	NOMO1	132
C=CC(=O)Nc1cccc(Oc2nc(Nc3ccc(N4CCN(C)CC4)cc3OC)ncc2Cl)c1	NOMO1	80.6
CN1C2=CC(=O)/C(=N/NC(N)=O)C=C2CC1S(=O)(=O)[O-].[Na+] (centres undefined)	NOMO1	135
Oc1cc2c(cc1O)C1c3ccc(O)c(O)c3OCC1(O)C2 (centres undefined)	NOMO1	107
CCOC(CN1C(=O)[C@](CC(=O)Nc2ccc(C)cc2)(NC(=O)Nc2ccc(C)cc2)c2ccccc21)OCC	NOMO1	122
O=C(O)c1ccc(-c2c[nH]c3ncc(-c4ccccc4)cc23)cc1C1CCCC1	NOMO1	134
CNC(=O)c1ccc(N2C(=S)N(c3ccc(C#N)c(C(F)(F)F)c3)C(=O)C2(C)C)cc1F	NOMO1	127

###

Tested on: P12-Ichikawa
assay-method-text: cell viability relative to DMSO control; higher = less cytotoxic
condition-label: RPMI 5 mM glucose + 10% FBS; 48 h; 0.0632 µM
property-label: cell viability (%)

molecule	result-number
CCOc1cc(/C=C2/C(=O)N(c3ccccc3)N=C2C)cc(Cl)c1OCC(=O)OC	81
O=C(O)CCNc1cc(N2CCc3ccccc3CC2)nc(-c2ccccn2)n1	114
CO[C@H]1/C=C/O[C@@]2(C)Oc3c(C)c(O)c4c(O)c(c(/C=N\N5CCN(C6CCCC6)CC5)c(O)c4c3C2=O)NC(=O)/C(C)=C\C=C\[C@H](C)[C@H](O)[C@@H](C)[C@@H](O)[C@@H](C)[C@H](OC(C)=O)[C@@H]1C	70.7
C[C@H]1C[C@H]2[C@@H]3CCC4=CC(=O)C=C[C@]4(C)[C@H]3C(=O)C[C@]2(C)[C@@]1(O)C(=O)CO	94.7
CC(C)(C)Cn1c(N)nc2ccc(-c3[nH]c(C(C)(C)C)nc3-c3ccc(F)cc3)nc21	86.4
CO[C@@H]1[C@@H](OC(N)=O)[C@@H](O)[C@H](OC2=CC=C3\C(=C(NC(=O)C4=CC=C([O-])C(=C4)CC=C(C)C)/C(=O)OC3=C2C)O)OC1(C)C	114
CC(=O)Oc1cc2c(s1)CCN(C(C(=O)C1CC1)c1ccccc1F)C2.Cl (stereo not given)	115
CC1=CC=C2\N=C/3N(CC[C@@]3(O)C(=O)C2=C1)C4=CC=CC=C4	92.4
C=C[C@H]1CN2CCC1C[C@@H]2[C@@H](O)c1ccnc2ccccc12 (stereo not given in full)	103
CN(CCOc1ccc(NS(C)(=O)=O)cc1)CCc1ccc(NS(C)(=O)=O)cc1	121

###

Tested on: SEM cells
assay-method-text: cell viability relative to DMSO control; higher = less cytotoxic
condition-label: RPMI 5 mM glucose + 10% dialyzed FBS; 48 h; 0.19 µM
Reported cell viability values for the following compounds.

smiles-data	cell viability / %
NC(=O)c1ccc(-c2nc(-c3ccc4c(c3)OCO4)c(-c3ccccn3)[nH]2)cc1	111
C[C@H]1C[C@H]2[C@@H]3CCC4=CC(=O)C=C[C@]4(C)[C@H]3C(=O)C[C@]2(C)[C@@]1(O)C(=O)CO	101
O=C([O-])[C@H](CC(=O)N1C[C@H]2CCCC[C@H]2C1)Cc1ccccc1	117
NCCCCCC(=O)O	99.9
